Every entry's value here was drawn from the supplement of paper PMC10065799.

studySystem: EPHB1 (UniProt P54762)
Sequence (P54762 whole entry, looked up): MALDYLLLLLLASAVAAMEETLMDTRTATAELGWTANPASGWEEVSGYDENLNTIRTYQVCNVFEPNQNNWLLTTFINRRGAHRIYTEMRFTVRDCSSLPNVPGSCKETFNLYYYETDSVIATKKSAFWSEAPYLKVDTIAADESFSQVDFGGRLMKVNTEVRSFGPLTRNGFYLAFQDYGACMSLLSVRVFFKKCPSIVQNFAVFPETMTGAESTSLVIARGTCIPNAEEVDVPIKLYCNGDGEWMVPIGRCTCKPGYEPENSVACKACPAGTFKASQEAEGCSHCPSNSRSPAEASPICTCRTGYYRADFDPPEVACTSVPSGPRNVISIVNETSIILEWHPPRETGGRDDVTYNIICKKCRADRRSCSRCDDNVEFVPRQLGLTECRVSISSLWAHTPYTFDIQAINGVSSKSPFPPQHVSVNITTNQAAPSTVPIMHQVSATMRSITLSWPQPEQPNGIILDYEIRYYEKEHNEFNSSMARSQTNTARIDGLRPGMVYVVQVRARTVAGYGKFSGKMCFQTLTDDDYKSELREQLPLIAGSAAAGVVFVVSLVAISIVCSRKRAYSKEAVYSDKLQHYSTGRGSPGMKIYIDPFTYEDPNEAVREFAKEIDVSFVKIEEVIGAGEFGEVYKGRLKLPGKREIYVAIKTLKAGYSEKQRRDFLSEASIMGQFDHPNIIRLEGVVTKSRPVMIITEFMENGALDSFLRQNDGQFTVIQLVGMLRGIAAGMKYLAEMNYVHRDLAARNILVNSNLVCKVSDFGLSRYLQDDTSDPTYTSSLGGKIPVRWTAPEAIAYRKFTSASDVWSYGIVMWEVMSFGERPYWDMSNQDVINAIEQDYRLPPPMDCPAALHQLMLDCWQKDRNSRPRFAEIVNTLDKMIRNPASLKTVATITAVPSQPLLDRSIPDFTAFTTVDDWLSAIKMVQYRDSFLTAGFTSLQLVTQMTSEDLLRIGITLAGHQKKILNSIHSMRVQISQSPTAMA
assayText: phosphorylation enrichment, bacterial display (enrichment ratio); higher = better substrate or ligand; peptides without Tyr show the background
quantityMeasured: phosphorylation enrichment
// return a plain number; no unit text

Worked set:
1. EGTATYAAAIL [JUP_Y644_V648I] :: 0.884
2. KLKPIYFHTQG [AR_Y916_V912L] :: 0.393

For reference, reported phosphorylation enrichment for KRGIDYILWHM [FRMD1_Y225_R228W] stands at 0.765

phosphorylation enrichment reported for this sequence CTTIHYNFMHN [TP53_Y234_C238H_YF] : 0.583

# sequence QSMEPYTKQQL [STAT3_Y640_V637M] ; its phosphorylation enrichment = 0.454

Memo: RTLTHYKSAVK [ASNS_Y555] , reported phosphorylation enrichment: 0.678

Short answer for QNTGDDYDLYG [PTPN11_Y62_Y62D] : phosphorylation enrichment was 0.985

====

studySystem: SHP2-C SH2
assayText: SH2 binding enrichment of the phosphorylated peptide, bacterial display (enrichment ratio); higher = better substrate or ligand; peptides without Tyr show the background
This listing pairs sequences with measured SH2 binding enrichment.
Output spec: single numeric token, no unit.

1) ITNLLYHVVGG [GBA_Y412_W417G] :: 1.12
2) LRFDSYSSFCN [SLC20A2_Y433_YF] :: 0.612
3) VIEYSYTSADG [DHCR7_Y382_C380Y] :: 3.63

Summary line: RPCVVYGGADI [DDX3X_Y301] , SHP2-C SH2, reported SH2 binding enrichment = 0.773

Noted SH2 binding enrichment for HGVSSYDTVIS [LDLR_Y465] , tested on SHP2-C SH2: 0.795

Kindly note: SHP2-C SH2, SVTCTYSPAPN [TP53_Y126_L130P] , SH2 binding enrichment value reported: 0.554

Field SH2 binding enrichment (SHP2-C SH2), entry EGNEQYEGFCV [GRIA3_Y451_R450Q_YF] : 0.964

====

studySystem: Grb2 SH2 (UniProt P62993)
Sequence (P62993 whole entry, looked up): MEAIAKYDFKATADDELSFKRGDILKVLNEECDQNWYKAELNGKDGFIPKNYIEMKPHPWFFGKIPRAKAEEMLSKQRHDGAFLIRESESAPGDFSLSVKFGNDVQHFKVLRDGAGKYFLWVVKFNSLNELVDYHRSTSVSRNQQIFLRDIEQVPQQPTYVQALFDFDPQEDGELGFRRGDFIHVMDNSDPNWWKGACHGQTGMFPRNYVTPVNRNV
assayText: SH2 binding enrichment of the phosphorylated peptide, bacterial display (enrichment ratio); higher = better substrate or ligand; peptides without Tyr show the background
Output schema: class label derived from SH2 binding enrichment. Mapping: 1 = under 0.9, 2 = from 0.9 up to 1, 3 = 1 and over

1) AKLKDYFIFNK [CCDC42_Y149_YF] :: 3

### Prompt Form: Item = VYLGAYDCFLP [SLC22A5_Y486_R488C] ; Class = ?
### Response 3

### Prompt Lab note: which band did AGQERYRAITS [RAB11B_Y73] land in?
### Response 2

### Prompt Textbook exercise: identify the category of the sequence given here, CTTIHYNFMHN [TP53_Y234_C238H_YF] , according to its measured value.
### Response 3

### Prompt Lab log: TLARLYHPDST [LRIG1_Y1029] — assign SH2 binding enrichment category
### Response 1

### Prompt Which SH2 binding enrichment category applies to DKANRYFSPNF [PTEN_Y336] here?
### Response 3

### Prompt Form field 'band' for RVILRYVNPGT [LAMA3_Y791]
### Response 3

### Prompt Assign a bin to PINLFYLMDLS [ITGB2_Y131_D128N_YF]
### Response 1

### Prompt Form: Item = KELSSYKHLTL [SLIT2_Y776_N775S] ; Class = ?
### Response 1

### Prompt Could you place KERNQYGEVMV [MMP21_Y347] in its proper category? Many thanks.
### Response 2

### Prompt Any idea which band SVSVNYGDQVQ [GRAP_Y101] is in?
### Response 2

### Prompt Returns: class label. Input: EGTATYAAAIL [JUP_Y644_V648I]
### Response 1

### Prompt Note: place this sequence into its band. Item: RKLVDYDSAQH [BIN1_Y150_R154Q]
### Response 3

### Prompt Into which category would you place NLVSEYQQYQD [TUBB3_Y422_D417N] ?
### Response 1
